# reported Activity; entries follow
Test system: Rattus norvegicus
Assay: Toxicity in Wistar albino rat assessed as ulcerogenic activity at 300 mg/kg, po qd for 3 days
Assay type: organism-based
Set-up: dose 300 mg/kg, route oral
Details: in vivo, 72 h
Just the number please, in %, no unit attached.

Sample records with Activity:
Prompt line: Fill in: Activity of "N#Cc1cnn(-c2ccccc2)c1NC(=O)C(=O)Nc1c(C#N)cnn1-c1ccccc1" is ___
Response line: 0

Prompt line: Dear colleague, I am looking for the recorded Activity of the following molecule: "C[C@H](NC(=O)C(=O)Nc1c(C#N)cnn1-c1ccccc1)c1ccccc1"
Response line: 0

Prompt line: Any idea what its Activity is? The molecule is "COc1ccc2c(c1)c(CC(=O)O)c(C)n2C(=O)c1ccc(Cl)cc1"
Response line: 100

Prompt line: Value lookup for Activity; key = "Cc1ccc(-c2cc(C(F)(F)F)nn2-c2ccc(S(N)(=O)=O)cc2)cc1"
Response line: 0

Prompt line: I'd like to know its Activity. The molecule in question is CC(NC(=O)C(=O)Nc1c(C#N)cnn1-c1ccccc1)c1ccccc1 (stereo unspecified)
Response line: 10

Please turn your attention to the following entry.
Prompt line: Quick one: Activity of "C[C@@H](NC(=O)C(=O)Nc1c(C#N)cnn1-c1ccccc1)c1ccccc1" ?
Response line: 0

----------
System: Rattus norvegicus
Assay: Antiinflammatory activity in Wistar albino rat assessed as inhibition of formalin-induced paw edema at 20 mg/kg, po administered 1 hr prior to formalin challenge measured after 4 hrs relative to control
Format: functional
Consider the following compounds and their measured inhibition in vivo at 20 mg/kg readings.
Dear colleague, please return just the value in %, with no unit written.

Prompt line: Please report the recorded inhibition in vivo at 20 mg/kg for "C[C@@H](NC(=O)C(=O)Nc1c(C#N)cnn1-c1ccccc1)c1ccccc1" .
Response line: 50

Prompt line: Query (compound): "N#Cc1cnn(-c2ccccc2)c1NC(=O)C(=O)Nc1c(C#N)cnn1-c1ccccc1" ; field requested: inhibition in vivo at 20 mg/kg
Response line: 58

Prompt line: If you can, please state the reported inhibition in vivo at 20 mg/kg value of "C[C@H](NC(=O)C(=O)Nc1c(C#N)cnn1-c1ccccc1)c1ccccc1" .
Response line: 39

Prompt line: Which inhibition in vivo at 20 mg/kg value is on record for CC(NC(=O)C(=O)Nc1c(C#N)cnn1-c1ccccc1)c1ccccc1 (stereo not given) ?
Response line: 50

Please look at the following compound next.
Prompt line: Look at this compound and give its reported inhibition in vivo at 20 mg/kg. "Cc1ccc(-c2cc(C(F)(F)F)nn2-c2ccc(S(N)(=O)=O)cc2)cc1"
Response line: 47

----------
Tested on: THP-1
Assay: Cytotoxicity against human THP1 cells assessed as reduction in cell viability
Assay type: cell-based
measure: EC50 (µM)
Quick reminder: number only, in µM, skip the unit.

Prompt line: Tell me the measured EC50 of "N#Cc1cnn(-c2ccccc2)c1NC(=O)C(=O)Nc1c(C#N)cnn1-c1ccccc1" , please.
Response line: 100

Prompt line: What measured EC50 goes with "COC(=O)c1nc2c(cnn2-c2ccccc2)c(=O)[nH]1" ?
Response line: 40

Prompt line: Could you tell me which EC50 is on file for "N#Cc1cnn(-c2ccccc2)c1NC(=O)C(=O)NCCc1ccccc1" ?
Response line: 10

Prompt line: // returns reported EC50 for input CC(NC(=O)C(=O)Nc1c(C#N)cnn1-c1ccccc1)c1ccccc1 (stereo unspecified)
Response line: 500

# next compound below
Prompt line: // returns reported EC50 for input "N#Cc1cnn(-c2ccccc2)c1NC(=O)C(=O)NC1CCCCC1"
Response line: 80

----------
Tested on: Rattus norvegicus
Assay: Antiinflammatory activity in Wistar albino rat sub-acute inflammatory model assessed as inhibition of formalin-induced paw edema at 20 mg/kg, po administered 1 hr prior to formalin challenge measured on day 8 relative to control
Assay type: functional
// values below are reported inhibition in vivo at 20 mg/kg
Report as a plain number; the unit % is understood.

Prompt line: Which inhibition in vivo at 20 mg/kg is reported for this compound? CC(NC(=O)C(=O)Nc1c(C#N)cnn1-c1ccccc1)c1ccccc1 (stereo not given)
Response line: 38

Prompt line: # get_value(readout='inhibition in vivo at 20 mg/kg', item= "N#Cc1cnn(-c2ccccc2)c1NC(=O)C(=O)Nc1c(C#N)cnn1-c1ccccc1" )
Response line: 44

Prompt line: For the compound shown here, "Cc1ccc(-c2cc(C(F)(F)F)nn2-c2ccc(S(N)(=O)=O)cc2)cc1" , give the reported inhibition in vivo at 20 mg/kg.
Response line: 41

Prompt line: Query: inhibition in vivo at 20 mg/kg; subject: "C[C@H](NC(=O)C(=O)Nc1c(C#N)cnn1-c1ccccc1)c1ccccc1"
Response line: 35

Below: the item to evaluate.
Prompt line: Please look up its inhibition in vivo at 20 mg/kg: "C[C@@H](NC(=O)C(=O)Nc1c(C#N)cnn1-c1ccccc1)c1ccccc1"
Response line: 33
